The values you see were collected from patent US20250368649A1.

- Tested on: MKN1 cells
- PROCEDURE DETAILS: Inhibition of KRas-mediated phosphorylation of ERK (Cisbio HTRF pERK), MKN1 cells
- Type: cell-based
- STUDY CONDITIONS: Homo sapiens, MKN-1, 3 hour compound incubation, Cisbio pERK HTRF
READOUT LABEL: IC50 (nM)
Numeric only. Scale: nM

Example results:
CCc1c(F)ccc2cc(O)cc(N3CCc4c(nc(OC[C@@]56CCCN5C[C@H](F)C6)nc4N4CCCn5nc(C(=O)N6CCC7(CCN7)C6)cc5C4)C3)c12 (stereo partly drawn); 156
C=C1CN2CC(=C)CC2(COc2nc3c(c(N4CCC[C@@](C)(O)C4)n2)CCN(c2cc(O)cc4ccc(F)c(CC)c24)C3)C1; 3.1
CCc1c(F)ccc2cc(O)cc(N3CCc4c(nc(OC[C@@]56CCCN5C[C@H](F)C6)nc4N4CCCn5nc(C(=O)N6CC7CCC6CC7)cc5C4)C3)c12; 8.4
CCc1c(F)ccc2cc(O)cc(N3CCc4c(nc(OC[C@@]56CCCN5C[C@H](F)C6)nc4N4CCCC(O)(C(N)=O)C4)C3)c12 (stereo partly drawn); 69.1
CCc1c(F)ccc2cc(O)cc(N3CCc4c(nc(OC[C@@]56CCCN5C[C@H](F)C6)nc4N4CCCn5nc(C(=O)NC6CC6)cc5C4)C3)c12; 9

We next turn to a different compound, shown below.
## Task Please state recorded IC50 (tested on MKN1 cells) of CCc1c(F)ccc2cc(O)cc(N3CCc4c(nc(OC[C@@]56CCCN5C[C@H](F)C6)nc4N4CCCn5nc(NS(C)(=O)=O)cc5C4)C3)c12
## Result 456
